- Tested on: lambsquarters
- experimental_details: Test B pre-/postemergence herbicide test
- Assay type: in vivo, Chenopodium album
- particulars: Postemergence, 500 g ai/ha; scale 0 (no effect) to 100 (complete control)
Please note: true applies when Lambsquarters plant response rating is 60 or greater, and false applies otherwise.

Given the entry CC(C)(C)n1nc(Br)c(C(=O)Nc2cccc(C(=O)N3CC=CC3)c2)n1 [Compound 433] , answer whether its Lambsquarters plant response rating meets or surpasses 60.
true

Given the entry CCc1nn(C(C)(C)C)nc1C(=O)Nc1cccc(C(=O)NC2CC2)c1 [Compound 417] , answer whether its Lambsquarters plant response rating meets or surpasses 60.
true

Given the entry CCOC(=O)c1ccnc(NC(=O)c2nn(C(C)(C)C)nc2C)c1 [Compound 421] , answer whether its Lambsquarters plant response rating meets or surpasses 60.
false

Given the entry C=CCN(CC=C)C(=O)c1cccc(NC(=O)c2nn(C(C)(C)C)nc2C)n1 [Compound 439] , answer whether its Lambsquarters plant response rating meets or surpasses 60.
false

Given the entry C#CCOc1cccc(NC(=O)c2cc(C(C)(C)C)nn2CC)c1 [Compound 411] , answer whether its Lambsquarters plant response rating meets or surpasses 60.
true

Given the entry C=CCN(C(C)=O)C(=O)c1ccc(F)c(NC(=O)c2cc(C(C)(C)C)nn2CC)c1 [Compound 442] , answer whether its Lambsquarters plant response rating meets or surpasses 60.
true

---

- Tested on: large crabgrass
- experimental_details: Test C pre-/postemergence herbicide test
- Format: in vivo, Digitaria sanguinalis
- particulars: 250 g ai/ha; scale 0-100; preemergence
parameter: Plant response rating, Crabgrass, Large
Give a plain numeric answer without units written out.

Return reported Plant response rating, Crabgrass, Large; argument: CCC1=NN(C(C)(C)C)CC1C(=O)Nc1cc(C(=O)N2CCCC2)ccc1F (racemic) [Compound 341]
90

Return reported Plant response rating, Crabgrass, Large; argument: Cc1nn(C(C)(C)C)nc1C(=O)Nc1cccc(C(=O)N(C)C)c1 [Compound 391]
100

Return reported Plant response rating, Crabgrass, Large; argument: CCN(CC)C(=O)c1cccc(NC(=O)c2nn(C(C)(C)C)nc2C)c1 [Compound 418]
100

Return reported Plant response rating, Crabgrass, Large; argument: CCn1nc(C(C)(C)C)cc1C(=O)Nc1cc(C(=O)N2CCCC2)ccc1F [Compound 242]
100

Return reported Plant response rating, Crabgrass, Large; argument: CCn1nc(C2(C)CC2)cc1C(=O)Nc1cccc(C(=O)N2CC=CC2)c1 [Compound 304]
100

Return reported Plant response rating, Crabgrass, Large; argument: CCn1nc(C(C)(C)C)cc1C(=O)Nc1cccc(OC(F)(F)C(F)F)c1 [Compound 333]
100

Return reported Plant response rating, Crabgrass, Large; argument: CCC1=NN(C(C)(C)C)CC1C(=O)Nc1cc(C(=O)N(C)CC)ccc1F (racemic) [Compound 342]
70

---

Please provide measured Soybean plant response rating for the entries that follow.
- Test system: soybean
- experimental_details: Test C pre-/postemergence herbicide test
- Format: in vivo, Glycine max
- particulars: Preemergence, 500 g ai/ha; scale 0 to 100, 0 no effect, 100 complete control
Give a plain numeric answer without units written out.

Return reported Soybean plant response rating; argument: CCn1nc(C(C)(C)C)cc1C(=O)Nc1cccc(C(C)=NO)c1
10

Return reported Soybean plant response rating; argument: CCN(CC)C(=O)c1cccc(NC(=O)c2cc(C(C)(C)C)nn2CC)n1
60

Return reported Soybean plant response rating; argument: CCn1nc(C(C)(C)C)cc1C(=O)Nc1cc(C#N)ccc1F
0

Return reported Soybean plant response rating; argument: CCNC(=O)c1cc(C)nc(NC(=O)c2cc(C(C)(C)C)nn2CC)c1
0

Return reported Soybean plant response rating; argument: C=CCNC(=O)c1cccc(NC(=O)c2sc(C(C)(C)C)nc2C)c1
30

---

Please provide measured Foxtail, Giant plant response rating for the entries that follow.
- Tested on: giant foxtail
- experimental_details: Test B pre-/postemergence herbicide test
- Type: in vivo, Setaria faberi
- particulars: postemergence, 125 g ai/ha; visual rating, scale 0 (no effect) to 100 (complete control)
Give a plain numeric answer without units written out.

Return reported Foxtail, Giant plant response rating; argument: Cc1nc(C(C)(C)C)sc1C(=O)Nc1cccc(C(=O)NCCF)c1 [Compound 200]
10

Return reported Foxtail, Giant plant response rating; argument: CCn1nc(C(C)(C)C)cc1C(=O)Nc1nccc(OC)n1 [Compound 165]
0

Return reported Foxtail, Giant plant response rating; argument: C=Cn1nc(C(C)(C)C)cc1C(=O)Nc1cccc(C(=O)OCC)c1 [Compound 78]
30

Return reported Foxtail, Giant plant response rating; argument: CCn1nc(C(C)(C)C)cc1C(=O)Nc1cccc(OC(F)(F)F)c1 [Compound 272]
10

Return reported Foxtail, Giant plant response rating; argument: COc1ccc(C(C)=NO)cc1NC(=O)c1cc(C(C)(C)C)nn1C [Compound 104]
0

Return reported Foxtail, Giant plant response rating; argument: CCc1nc(C(C)(C)C)sc1C(=O)Nc1cccc(C(=O)NCC2CC2)n1 [Compound 215]
0

Return reported Foxtail, Giant plant response rating; argument: CCNC(=O)c1cc(C)cc(NC(=O)c2cc(C(C)(C)C)nn2CC)n1 [Compound 150]
0

Return reported Foxtail, Giant plant response rating; argument: CCn1nc(C(C)(C)C)cc1C(=O)Nc1cc(C(=O)OC)c(OC)cc1F [Compound 75]
20

Return reported Foxtail, Giant plant response rating; argument: C=CCNC(=O)c1cccc(NC(=O)c2sc(C(C)(C)C)nc2C)c1 [Compound 202]
10

---

- System: blackgrass
- experimental_details: Test B postemergence herbicide test
- Type: in vivo, Alopecurus myosuroides
- particulars: Postemergence, 500 g ai/ha; visual rating after 13 to 15 days, scale 0 (no effect) to 100 (complete control)
- Protocol: At the same time, plants selected from these crop and weed species and also blackgrass (Alopecurus myosuroides Huds.), wheat (Triticum aestivum L.) and wild oat (Avena fatua L.) were treated with postemergence applications of test chemicals formulated in the same manner. […] Treated plants and controls were maintained in a greenhouse for 13 to 15 days, after which time all species were compared to controls and visually evaluated. […]
parameter: Plant response rating, Blackgrass

Return reported Plant response rating, Blackgrass; argument: CCn1nc(C(C)(C)C)cc1C(=O)Nc1cccc(C(=O)OC)c1
20

Return reported Plant response rating, Blackgrass; argument: CCNC(=O)c1cccc(NC(=O)c2cc(C(C)(C)C)nn2CC(C)C)c1
10

Return reported Plant response rating, Blackgrass; argument: CC(=NO)c1cccc(NC(=O)c2cc(C(C)(C)C)nn2CC(F)(F)F)c1
20

---

- Test system: soybean
- experimental_details: Test C pre-/postemergence herbicide test
- Type: in vivo, Glycine max
- particulars: 62 g ai/ha; preemergence; scale 0 to 100
Please provide measured Plant response rating, Soybean for the entries that follow.
Give a plain numeric answer without units written out.

Return reported Plant response rating, Soybean; argument: CCn1nc(C2(C)CC2)cc1C(=O)Nc1cccc(C(=O)N2CC=CC2)c1 [Compound 304]
0

Return reported Plant response rating, Soybean; argument: CCN(CC)C(=O)c1cccc(NC(=O)c2nn(C(C)(C)C)nc2C)c1 [Compound 418]
0

Return reported Plant response rating, Soybean; argument: CCNC(=O)c1ccnc(NC(=O)c2cc(C(C)(C)C)nn2CC)c1 [Compound 152]
0

---

Please provide measured Foxtail, Giant plant response rating for the entries that follow.
- Test system: giant foxtail
- experimental_details: Test A pre-/postemergence herbicide test
- Assay type: in vivo, Setaria faberi
- particulars: Preemergence, 2000 g ai/ha; 0 to 100 scale, 0 no effect, 100 complete control
Give a plain numeric answer without units written out.

Return reported Foxtail, Giant plant response rating; argument: C=Cn1nc(C(C)(C)C)cc1C(=O)Nc1cccc(C(=O)OCC)c1
70

Return reported Foxtail, Giant plant response rating; argument: CCn1nc(C(C)(C)C)cc1C(=O)Nc1cccc(C(=O)OC(C)C)c1C
0

Return reported Foxtail, Giant plant response rating; argument: CCCCn1nc(C(C)(C)C)cc1C(=O)Nc1cccc(C(=O)N(CC)CC)c1
5

Return reported Foxtail, Giant plant response rating; argument: CCn1nc(C(C)(C)C)cc1C(=O)Nc1ccc(F)c(C(=O)NCCF)c1
90

Return reported Foxtail, Giant plant response rating; argument: CCCCn1nc(C(C)(C)C)cc1C(=O)Nc1cccc(C(=O)NCC)c1
70

---

- Test system: large crabgrass
- experimental_details: Test B pre-/postemergence herbicide test
- Type: in vivo, Digitaria sanguinalis
- particulars: 125 g ai/ha; 0 is no effect, 100 is complete control; preemergence
- Procedure: […] At the same time, plants selected from these crop and weed species and also blackgrass (Alopecurus myosuroides Huds.), wheat (Triticum aestivum L.) and wild oat (Avena fatua L.) were treated with postemergence applications of test chemicals formulated in the same manner. […] Treated plants and controls were maintained in a greenhouse for 13 to 15 days, after which time all species were compared to controls and visually evaluated. […]
# label = Criterion met if Plant response rating (0 to 100 scale), Crabgrass, Large < 80 else Criterion not met

Check if Plant response rating (0 to 100 scale), Crabgrass, Large falls below 80 for CCNC(=O)c1cccc(NC(=O)c2nn(C(C)C)nc2C)c1 .
Criterion met

Check if Plant response rating (0 to 100 scale), Crabgrass, Large falls below 80 for C=CCOc1cccc(NC(=O)c2cc(C(C)(C)C)nn2CC)c1 .
Criterion met

Check if Plant response rating (0 to 100 scale), Crabgrass, Large falls below 80 for CCNC(=O)c1cccc(NC(=O)c2cc(C(C)(C)C)n[nH]2)c1 .
Criterion met

Check if Plant response rating (0 to 100 scale), Crabgrass, Large falls below 80 for COC(=O)c1ccc(F)c(NC(=O)c2nn(C(C)C)nc2C)c1 .
Criterion met

Check if Plant response rating (0 to 100 scale), Crabgrass, Large falls below 80 for CCNC(=O)c1ccc(F)c(NC(=O)C2CN(C(C)(C)C)N=C2CC)c1 (stereo not drawn) .
Criterion not met

Check if Plant response rating (0 to 100 scale), Crabgrass, Large falls below 80 for CCN1N=C(C(C)(C)C)CC1C(=O)Nc1cc(C(=O)N2CCCCC2)ccc1F (racemic) .
Criterion met

Check if Plant response rating (0 to 100 scale), Crabgrass, Large falls below 80 for CC(C)(C)n1nc(Br)c(C(=O)Nc2cccc(C(=O)N3CC=CC3)c2)n1 .
Criterion not met

Check if Plant response rating (0 to 100 scale), Crabgrass, Large falls below 80 for C#CCNC(=O)c1cccc(NC(=O)c2cc(C(C)(C)C)nn2C)n1 .
Criterion met

Check if Plant response rating (0 to 100 scale), Crabgrass, Large falls below 80 for CCc1nn(C(C)C)nc1C(=O)Nc1cccc(C(=O)N2CC=CC2)c1 .
Criterion not met

Check if Plant response rating (0 to 100 scale), Crabgrass, Large falls below 80 for CCc1nn(C2CCCC2)nc1C(=O)Nc1cccc(C(=O)N(C)C)c1 .
Criterion met
